Record form. Attribute: pIC50. Fill in for each entry.
assay: Antiproliferative activity against human A549 cells after 72 hrs by MTT assay; format: functional, cell-based; settings: A549, 72 h
One number for each entry, as −log10 of the molar value.

Solved cases below.
chemical_structure=CCOC(=O)c1nc2ccccc2nc1C#Cc1cccc(C)c1 test_result=5.19
chemical_structure=CCOC(=O)c1nc2ccccc2nc1C#Cc1ccc(C)cc1 test_result=5.48
chemical_structure=CCOC(=O)c1nc2ccccc2nc1C#Cc1cccc(F)c1 test_result=5.52
chemical_structure=CCOC(=O)c1nc2ccccc2nc1C#Cc1ccccc1 test_result=5.48

// below: pIC50 requested for another molecule
Read the entry CCOC(=O)c1nc2ccccc2nc1C#CC1CC1 and write its reported pIC50.
5.12
